- Study Target: EGFR L858R (BaF3-L858R cells) (Homo sapiens, UniProt P00533, L858R)
- Construct: host or cells: BaF3
- Sequence (P00533 25-1210 L858R): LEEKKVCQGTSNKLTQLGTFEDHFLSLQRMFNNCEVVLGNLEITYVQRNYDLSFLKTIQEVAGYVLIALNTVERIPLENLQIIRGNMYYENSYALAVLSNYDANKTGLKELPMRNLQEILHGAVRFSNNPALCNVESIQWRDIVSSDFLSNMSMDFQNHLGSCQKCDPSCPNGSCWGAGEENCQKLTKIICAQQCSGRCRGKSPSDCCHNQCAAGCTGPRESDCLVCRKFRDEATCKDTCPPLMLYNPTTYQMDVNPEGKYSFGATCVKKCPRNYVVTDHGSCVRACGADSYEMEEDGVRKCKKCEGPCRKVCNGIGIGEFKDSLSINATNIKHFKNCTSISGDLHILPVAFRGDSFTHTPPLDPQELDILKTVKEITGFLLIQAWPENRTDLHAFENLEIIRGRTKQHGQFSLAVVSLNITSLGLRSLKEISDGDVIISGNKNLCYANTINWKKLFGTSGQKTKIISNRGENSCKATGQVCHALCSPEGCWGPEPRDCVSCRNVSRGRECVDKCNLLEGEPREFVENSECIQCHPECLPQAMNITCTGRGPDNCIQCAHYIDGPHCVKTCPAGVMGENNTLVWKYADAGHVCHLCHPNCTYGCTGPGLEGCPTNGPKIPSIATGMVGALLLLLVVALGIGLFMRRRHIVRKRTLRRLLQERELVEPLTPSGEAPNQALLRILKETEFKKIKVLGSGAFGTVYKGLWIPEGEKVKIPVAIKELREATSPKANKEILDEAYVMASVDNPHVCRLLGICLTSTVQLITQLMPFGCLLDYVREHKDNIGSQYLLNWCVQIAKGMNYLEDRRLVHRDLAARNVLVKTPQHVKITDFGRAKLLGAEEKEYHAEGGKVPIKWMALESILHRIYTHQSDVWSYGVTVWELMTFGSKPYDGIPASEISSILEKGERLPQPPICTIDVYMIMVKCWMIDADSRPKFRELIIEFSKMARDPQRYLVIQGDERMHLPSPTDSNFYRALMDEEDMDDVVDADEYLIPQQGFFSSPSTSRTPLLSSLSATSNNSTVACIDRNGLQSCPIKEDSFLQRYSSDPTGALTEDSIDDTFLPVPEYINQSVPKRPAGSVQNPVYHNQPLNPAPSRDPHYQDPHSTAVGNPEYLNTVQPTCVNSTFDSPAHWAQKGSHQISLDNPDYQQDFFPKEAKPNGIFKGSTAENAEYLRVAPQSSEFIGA
- Experimental Details: Cell degradation of EGFR, HTRF assay, BaF3-L858R cells
- Format: cell-based
- Measurement Conditions: 16 h treatment, maximum percentage of degradation

- Molecule: "COC[C@H]1CN(c2ccc3c(c2)N2CC4CC[C@H](COc5c(c(C)nn5C)-c5cc(cc(C)n5)C(=O)/N=C/2N3)C4)CCN1C1CCN(c2cc(F)c(C3CCC(=O)NC3=O)nc2C)CC1 (some centres unmarked)"
  Dmax, %: 80.6
- Molecule: "Cc1cc2cc(n1)-c1c(C)nn(C)c1OC[C@H]1CC[C@H](C1)CN1/C(=N/C2=O)Nc2ccc(N3CCN(C[C@@H]4CCN(c5cc(F)c([C@H]6CCC(=O)NC6=O)c(F)c5)C4)CC3)cc21"
  Dmax, %: 90.1
- Molecule: "COC[C@H]1CN(c2cc3c(cc2F)N/C2=N\\C(=O)c4cc(C)nc(c4)-c4c(C)nn(C)c4OC[C@H]4CC[C@H](C4)CN23)CCN1C1CCN(c2cc(F)c([C@H]3CCC(=O)NC3=O)c(F)c2)CC1"
  Dmax, %: 91.1
- Molecule: "Cc1cc2cc(n1)-c1cnn(C)c1OC[C@H]1CC[C@H](C1)CN1/C(=N/C2=O)Nc2ccc(N3CCN([C@@H]4CCN(c5cc(F)c(C6CCC(=O)NC6=O)nc5C)C[C@@H]4F)CC3)cc21 (some centres unmarked)"
  Dmax, %: 84
- Molecule: "COC[C@H]1CN(c2ccc3c(c2)N2C[C@@H]4CC[C@H](COc5c(cnn5C)-c5cc(cc(C)n5)C(=O)/N=C/2N3)C4)CCN1C1CCN(c2cc(F)c([C@H]3CCC(=O)NC3=O)c(F)c2)CC1"
  Dmax, %: 83.3

----------
- Study Target: EGFR L858R (BaF3-L858R cells) (Homo sapiens, UniProt P00533, L858R)
- Construct: host or cells: BaF3
- Experimental Details: Cell degradation of EGFR, HTRF assay, BaF3-L858R cells
- Type: cell-based
- Measurement Conditions: 16 h treatment, EGFR degradation

- Compound: "COC[C@H]1CN(c2ccc3c(c2)N2CC4CC[C@H](COc5c(c(C(F)F)nn5C)-c5cc(cc(C)n5)C(=O)/N=C/2N3)C4)CCN1C1CCN(c2cc(F)c([C@H]3CCC(=O)NC3=O)c(F)c2)CC1 [Example 104]"
  Study Target: "EGFR L858R (BaF3-L858R cells) (Homo sapiens, UniProt P00533, L858R)"
  DC50 / nM: 4.1
- Compound: "COC[C@H]1CN(c2cc3c(cc2F)N/C2=N\\C(=O)c4cc(C)nc(c4)-c4c(C)nn(C)c4OC[C@H]4CC[C@H](C4)CN23)CCN1C1CCN(c2cc(F)c([C@H]3CCC(=O)NC3=O)c(F)c2)CC1 [Example 165]"
  Study Target: "EGFR L858R (BaF3-L858R cells) (Homo sapiens, UniProt P00533, L858R)"
  DC50 / nM: 3.32
- Compound: "COC[C@@H]1CN(c2ccc3c(c2)N2CC4CC[C@H](COc5c(c(C)nn5C)-c5cc(cc(C)n5)C(=O)/N=C/2N3)C4)CCN1C1CCN(c2cc(F)c([C@H]3CCC(=O)NC3=O)c(F)c2)CC1 [Example 80]"
  Study Target: "EGFR L858R (BaF3-L858R cells) (Homo sapiens, UniProt P00533, L858R)"
  DC50 / nM: 1.73
- Compound: "Cc1cc2cc(n1)-c1cnn(C)c1OC[C@H]1CC[C@H](C1)CN1/C(=N/C2=O)Nc2ccc(N3CCN(CC4CCN(c5ccc(C6CCC(=O)NC6=O)nc5C)CC4)CC3)cc21 (some centres unmarked) [Example 23]"
  Study Target: "EGFR L858R (BaF3-L858R cells) (Homo sapiens, UniProt P00533, L858R)"
  DC50 / nM: 12.8
- Compound: "Cc1cc2cc(n1)-c1cnn(C)c1OC[C@H]1CC[C@H](C1)CN1/C(=N/C2=O)Nc2ccc(N3CCN([C@@H]4CCN(c5ccc(C6CCC(=O)NC6=O)nc5C)C[C@@H]4F)CC3)cc21 (some centres unmarked) [Example 12]"
  Study Target: "EGFR L858R (BaF3-L858R cells) (Homo sapiens, UniProt P00533, L858R)"
  DC50 / nM: 0.493

----------
- Study Target: EGFR-L858R/C797S (H1975-clone #8 cells) (Homo sapiens, UniProt P00533, C797S/L858R)
- Construct: expressed in transfected cells; host or cells: H1975 (endogenous EGFR knocked out, clone #8)
- Sequence (P00533 25-1210 C797S/L858R): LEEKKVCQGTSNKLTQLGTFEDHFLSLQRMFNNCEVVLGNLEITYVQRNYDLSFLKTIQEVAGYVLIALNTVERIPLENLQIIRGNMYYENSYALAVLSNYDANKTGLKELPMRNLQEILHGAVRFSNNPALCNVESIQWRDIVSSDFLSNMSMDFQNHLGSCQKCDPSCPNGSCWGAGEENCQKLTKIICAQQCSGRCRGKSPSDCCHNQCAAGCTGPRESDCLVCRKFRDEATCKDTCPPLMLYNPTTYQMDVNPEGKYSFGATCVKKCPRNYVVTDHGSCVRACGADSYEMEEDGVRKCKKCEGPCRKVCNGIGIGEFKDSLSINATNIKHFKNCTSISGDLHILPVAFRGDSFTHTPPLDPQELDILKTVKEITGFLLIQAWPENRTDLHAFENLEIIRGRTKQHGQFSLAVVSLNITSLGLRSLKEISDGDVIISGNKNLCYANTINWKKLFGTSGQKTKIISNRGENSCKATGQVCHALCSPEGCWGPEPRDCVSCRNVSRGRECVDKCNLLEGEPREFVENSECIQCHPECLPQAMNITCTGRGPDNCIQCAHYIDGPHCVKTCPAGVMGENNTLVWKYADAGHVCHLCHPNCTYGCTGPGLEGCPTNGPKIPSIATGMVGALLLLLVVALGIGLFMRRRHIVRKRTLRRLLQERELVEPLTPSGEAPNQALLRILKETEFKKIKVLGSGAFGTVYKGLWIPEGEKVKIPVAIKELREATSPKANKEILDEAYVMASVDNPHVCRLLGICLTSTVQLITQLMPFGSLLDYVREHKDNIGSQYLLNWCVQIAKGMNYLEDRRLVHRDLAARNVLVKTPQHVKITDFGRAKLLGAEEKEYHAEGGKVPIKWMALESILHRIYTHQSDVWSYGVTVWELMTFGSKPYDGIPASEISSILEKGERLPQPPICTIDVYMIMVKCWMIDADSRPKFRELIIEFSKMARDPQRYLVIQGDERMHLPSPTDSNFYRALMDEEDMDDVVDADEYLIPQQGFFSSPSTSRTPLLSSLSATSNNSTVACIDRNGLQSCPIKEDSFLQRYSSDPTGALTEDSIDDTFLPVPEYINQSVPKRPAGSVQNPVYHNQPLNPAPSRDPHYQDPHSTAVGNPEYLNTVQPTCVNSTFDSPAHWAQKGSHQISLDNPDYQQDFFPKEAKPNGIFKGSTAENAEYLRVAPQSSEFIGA
- Experimental Details: Cell degradation of EGFR, HTRF assay, H1975-clone#8 (L858R/C797S) cells
- Format: cell-based
- Measurement Conditions: 16 h treatment, maximum percentage of degradation
- Protocol: The EGFR over-expressed cells then underwent knockout, in which the EGFR targeting sgRNA was designed to only target the endogenous EGFR copies and preserve the exogenous EGFR copies. Followed by the knockout, the edited H1975 cells were seeded in 96 well plates at the concentration of […], cultured for about 2 weeks to allow single clones formation. […] High control=Cell group with added DMSO and without compound, indicating microplate readings without EGFR degradation; […]

- Compound: "Cc1cc2cc(n1)-c1cnn(C)c1OC[C@H]1CCC(C1)CN1/C(=N/C2=O)Nc2ccc(N3CCC(CN4CC(Nc5cc(F)c([C@H]6CCC(=O)NC6=O)c(F)c5)C4)CC3)cc21"
  Study Target: "EGFR-L858R/C797S (H1975-clone #8 cells) (Homo sapiens, UniProt P00533, C797S/L858R)"
  Dmax: "66%"
- Compound: "COC[C@@H]1CN(c2ccc3c(c2)N2C[C@@H]4CC[C@H](COc5c(cnn5C)-c5cc(cc(C)n5)C(=O)/N=C/2N3)C4)CCN1CC1CN(c2ccc3c(c2)C(=O)N(C2CCC(=O)NC2=O)C3=O)C1 (stereo partly shown)"
  Study Target: "EGFR-L858R/C797S (H1975-clone #8 cells) (Homo sapiens, UniProt P00533, C797S/L858R)"
  Dmax: "62.4%"
- Compound: "Cc1cc2cc(n1)-c1c(C)nn(C)c1OC[C@H]1CC[C@H](C1)CN1/C(=N/C2=O)Nc2ccc(N3CC(N(C)C4CCN(c5cc(F)c([C@H]6CCC(=O)NC6=O)c(F)c5)CC4)C3)cc21"
  Study Target: "EGFR-L858R/C797S (H1975-clone #8 cells) (Homo sapiens, UniProt P00533, C797S/L858R)"
  Dmax: "87%"
- Compound: "COC[C@@H]1CN(c2ccc3c(c2)N2CC4CC[C@H](COc5c(cnn5C)-c5cc(cc(C)n5)C(=O)/N=C/2N3)C4)CCN1C1CCN(c2c(F)cc(NC3CCC(=O)NC3=O)cc2F)CC1 (stereo partly shown)"
  Study Target: "EGFR-L858R/C797S (H1975-clone #8 cells) (Homo sapiens, UniProt P00533, C797S/L858R)"
  Dmax: "83.8%"
- Compound: "Cc1cc2cc(n1)-c1c(C)nn(C)c1OC[C@H]1CC[C@H](C1)CN1/C(=N/C2=O)Nc2ccc(N3CCC(C)(CN(C)C4CCN(c5cc(F)c([C@H]6CCC(=O)NC6=O)c(F)c5)CC4)CC3)cc21"
  Study Target: "EGFR-L858R/C797S (H1975-clone #8 cells) (Homo sapiens, UniProt P00533, C797S/L858R)"
  Dmax: "81.1%"
- Compound: "COC[C@H]1CN(c2ccc3c(c2)N2C[C@@H]4CC[C@H](COc5c(c(C)nn5C)-c5cc(cc(Cl)n5)C(=O)/N=C/2N3)C4)CCN1C1CCN(c2cc(F)c([C@H]3CCC(=O)NC3=O)c(F)c2)CC1"
  Study Target: "EGFR-L858R/C797S (H1975-clone #8 cells) (Homo sapiens, UniProt P00533, C797S/L858R)"
  Dmax: "85.4%"
- Compound: "Cc1cc2cc(n1)-c1cnn(C)c1OC[C@H]1CC[C@H](C1)CN1/C(=N/C2=O)Nc2ccc(N3CCN([C@@H]4CCN(c5c(C)cc(C6CCC(=O)NC6=O)nc5C)C[C@@H]4F)CC3)cc21 (stereo partly shown)"
  Study Target: "EGFR-L858R/C797S (H1975-clone #8 cells) (Homo sapiens, UniProt P00533, C797S/L858R)"
  Dmax: "65.5%"
